Experiment: Degradation constant K (melt degradation performance)
Type: physicochemical
Conditions: 1% salt in PET, 2-roll mill 270 °C 5 min; molten state 290 °C
# reported K; entries follow
readout.kind: K

>>> print(df.to_string())
                                   compound  readout_kind  endpoint_value
0  O=C(O)c1ccccc1O [ortho-hydroxy benzoic acid]             K              26
1  O=C(O)c1c(O)cc(O)cc1O [2,4,6-dihydroxy benzoic acid]             K              37
2              O=C(O)c1cccc([N+](=O)[O-])c1             K              20
3                O=C(O)c1ccccc1[N+](=O)[O-]             K              20
4                      O=C(O)c1ccc(Cl)cc1Cl             K              65
5  O=C(O)c1ccccc1O [ortho-ONa-benzoic acid]             K              24
6                 O=C(O)c1ccc(Oc2ccccc2)cc1             K              40
7  O=C(O)c1cc(O)ccc1O [2,5-dihydroxy benzoic acid]             K              22
8  O=C([O-])Cc1cccc2ccccc12.[Na+] [sodium 1-naphthylacetate]             K              30

----------
Each entry below lists one item and its recorded End Groups --COOH value.
Experiment: End group determination
Format: physicochemical
Details: PET I.V. 0.73 + 1% salt, 2-roll mill 300 °C 2 min
readout.kind: End Groups --COOH (moles × 10^-6 g^-1)

In [3]: df
Out[3]:
                                   compound         unit_symbol  endpoint_value
0  CC(C)(C)c1ccc(C(=O)[O-])cc1.[Na+] [sodium para-tert-butylbenzoate, reference compound]  moles × 10^-6 g^-1              83
1  O=C([O-])c1c(O)cccc1O.[Na+] [sodium 2,6-dihydroxybenzoate]  moles × 10^-6 g^-1              55
2  O=C([O-])c1c(Cl)cccc1Cl.[Na+] [sodium 2,6-dichlorobenzoate]  moles × 10^-6 g^-1              51
3  O=C(O)c1ccccc1 [sodium benzoate, reference compound]  moles × 10^-6 g^-1              44

----------
Experiment: Half-crystallisation time (t1/2), isothermal DSC
Assay type: physicochemical
Details: 120 °C; 1% salt in PET, 2-roll mill 270 °C 5 min; after melting 1 minute at 290 °C
Reported t1/2 (sec) 120° C. values are given for each entry in this list.
readout.kind: t1/2 (sec) 120° C. (s)

>>> print(df.to_string())
                                   molecule        readout_kind  endpoint_value
0  O=C(O)c1cccc(O)c1 [metra-hydroxy benzoic acid]  t1/2 (sec) 120° C.              55
1            O=C(O)c1cc([N+](=O)[O-])ccc1Cl  t1/2 (sec) 120° C.              40
2  O=C(O)c1c(O)cc(O)cc1O [2,4,6-dihydroxy benzoic acid]  t1/2 (sec) 120° C.              50
3                          O=C(O)c1ccccc1Cl  t1/2 (sec) 120° C.              36
4                         O=C(O)c1ccc(F)cc1  t1/2 (sec) 120° C.              38

----------
Measured Tn, listed per entry.
Experiment: Crystallisation peak temperature on heating (Tn), DSC
Assay type: physicochemical
Conditions: 1% salt on PET I.V. 0.73 from solution; time in press 30 sec at 280 °C
readout.kind: Tn (°C)

                                   compound  readout_kind  endpoint_value
0  O=C(O)c1ccccc1 [sodium benzoate, reference compound]            Tn           115.5
1  COC(=O)c1ccc(C(=O)[O-])cc1.[K+] [Potassium monomethyl terephthalate, reference compound]            Tn           138.5
2  O=C([O-])c1ccc(C(=O)[O-])cc1.[Na+].[Na+] [Disodium terephthalate, reference compound]            Tn             141
3  O=C(O)c1ccccc1C(=O)O [Potassium hydrogen orthophthalate, reference compound]            Tn           142.5

----------
% of carboxylate end group values for the compounds below.
Test: End group determination
Assay type: physicochemical
Details: PET I.V. 0.73 + 1% salt, 2-roll mill 300 °C 2 min
readout.kind: % of carboxylate end group (%)

>>> print(df.to_string())
                                   compound                readout_kind  unit_symbol  endpoint_value
0  O=C([O-])c1cc(O)cc(O)c1.[Na+] [sodium 3,5-dihydroxybenzoate]  % of carboxylate end group            %               0
1  CC(C)(C)c1ccc(C(=O)[O-])cc1.[Na+] [sodium para-tert-butylbenzoate, reference compound]  % of carboxylate end group            %             2.5
2                      O=C(O)c1ccc(Cl)cc1Cl  % of carboxylate end group            %            16.7
3  O=C(O)c1ccccc1 [sodium benzoate, reference compound]  % of carboxylate end group            %             9.6
4                          O=C(O)c1ccccc1Cl  % of carboxylate end group            %              22
5  O=C([O-])c1c(O)cccc1O.[Na+] [sodium 2,6-dihydroxybenzoate]  % of carboxylate end group            %             3.9
6  O=C([O-])c1ccc(O)cc1.[Na+] [sodium p-hydroxybenzoate]  % of carboxylate end group            %             2.7
7  O=C([O-])c1c(Cl)cccc1Cl.[Na+] [sodium 2,6-dichlorobenzoate]  % of carboxylate end group            %             9.8

----------
Experiment: Crystallisation peak temperature on heating (Tn), DSC
Assay type: physicochemical
Conditions: 1% salt deposited from solution on PET, pressed 280 °C 1 minute; heating rate 16 °C/minute
Experimental: In one such DSC technique the crystallisation peak temperature difference, Tn(composition)--Tn(polyester) is determined by measuring the crystallisation peak temperatures on heating for the composition in comparison with the polyester of the composition not containing the ionisable salt. The detailed procedure is as follows. […] The crystallisation peak temperature observed on this heating cycle is recorded and compared with the value for the polyester not containing the additive. […]
Where a name gives a salt, the structure may show the parent alone.
Tn (16° C./min) values, listed per item
readout.kind: Tn (16° C./min) (°C)

                                    compound  endpoint_value
 0  O=C(O)c1ccc(-c2ccccc2)cc1 [Sodium salt of 4-biphenylcarboxylic acid]             131
 1  O=[PH](O)C1CCCCC1 [Calcium cyclohexyl phosphinate]             129
 2  O=C(O)c1cccs1 [Sodium salt of 2-thiophencarboxylic acid]             112
 3  O=C(O)c1ccccc1-c1ccccc1 [Sodium salt of 2-biphenylcarboxylic acid]             121
 4  O=[PH](O)c1ccccc1 [Sodium phenyl phosphinate]             117
 5  O=C([O-])c1cccc2cccc(Br)c12.[Na+] [Sodium 8-bromo-1-naphthoate]             124
 6  O=C([O-])c1cccc2c(O)cccc12.[Na+] [Sodium 5-hydroxy-1-naphthoate]             132
 7  O=C1NS(=O)(=O)c2ccccc21 [sodium salt of saccharin]             112
 8  O=C(O)c1ccc2ccccc2c1 [Sodium salt of 2-naphthoic acid]             120
 9  O=C([O-])c1ccc2cc(O)ccc2c1.[Na+] [Sodium 6-hydroxy-2-naphthoate]             116
10             O=C([O-])c1cccc2ccccc12.[Na+]             111
11  O=C(O)c1ccco1 [Sodium salt of 2-furoic acid]             127
12  COc1ccc2cc(C(=O)[O-])ccc2c1.[Na+] [Sodium 6-methoxy-2-naphthoate]             119

----------
Assay: ΔT = Tc(cooling) - Tn(heating), DSC
Assay type: physicochemical
Conditions: 1% salt in PET, 2-roll mill 270 °C 5 min; 10 °C/minute
Classify as follows. Reported ΔT greater than or equal to 100 °C: true (1). Reported ΔT below: false (0).

                                   molecule  label_value
0  CC(C)(C)c1ccc(C(=O)[O-])cc1.[Na+] [sodium para-tert-butylbenzoate, reference compound]    false (0)
1  O=C(O)c1ccccc1Cl [ortho-chlorobenzoic acid]     true (1)
2  O=C(O)c1ccc(F)cc1 [para fluorobenzoic acid]     true (1)
3  O=C(O)c1cccc(O)c1 [metra-hydroxy benzoic acid]    false (0)
